Field: growth. Provide a value for each of the compounds that follow.
# Tested on: OVCAR-5 ovarian
# ASSAY_DETAILS: NCI-60 one-dose screen, 48 h (100 = growth as untreated, 0 = no growth, -100 = all killed)
# TEST_PARAMETERS: 10 µM unless noted
# Experimental: Growth inhibition of the OVCAR-5 human tumor cell line is measured as a screen for anti-cancer activity. Cells are grown in 96 well plates and exposed to the test compound for 48 hours. Compounds are tested at a single concentration, which is 10^-5 M for most compounds. The reported endpoint is percent growth (GI% or GIPRCNT), where numbers from 0 - 100% represent growth inhibition, and numbers from -100% - 0 represent cell death. For example, a value of 40 represents 60% growth inhibition. […]
This is part of a sample that, as a whole, favours compounds with a hit. Of some 83,000 tested, about 20% had one in any assay.
Numeric answer only, unit % assumed.

stdin: For the compound `C=CCN(CCOC(=O)c1ccc([N+](=O)[O-])cc1)CCOC(=O)c1ccc([N+](=O)[O-])cc1` , what growth is on record?
stdout: 102

stdin: Also O=C1OCC2=C1C(c1ccc(Cl)c(Cl)c1)c1cc3c(cc1N2CCO)CCC3 (stereo not drawn) , if possible.
stdout: 35.3

stdin: Also `COc1c(C(=O)/C=C/c2ccc(C)o2)c(O)cc2occc12` , if possible.
stdout: 107

stdin: Also `COc1ccc(-c2cnc3ccnn3c2-c2cc(OC)c(OC)c(OC)c2)cc1` , if possible.
stdout: 66.1

stdin: Also `CCOC(=O)c1ccc(NCCC(=O)O)cc1` , if possible.
stdout: 110

stdin: Also `COc1cccc(NC(=O)[C@H](C(C)C)n2c(=O)[nH]c3ccccc3c2=O)c1` , if possible.
stdout: 108

stdin: Also `O=C(CS)OCC(COC(=O)CS)(COC(=O)CS)COC(=O)CS` , if possible.
stdout: 104

stdin: Also `COc1ccc(/C=C/C(=O)c2ccc(NC(=O)CSc3nnc(-c4ccc(Cl)cc4)n3-c3ccccc3)cc2)cc1` , if possible.
stdout: 123

stdin: Also `COc1cc(CN2CCO[C@H](COc3cccc(F)c3)C2)ccc1Cl` , if possible.
stdout: 47.8

stdin: Also `CN1CCN(c2ccc(N3Cc4ccccc4OC4=C3C(=O)c3c(O)ccc(O)c3C4=O)cn2)CC1` , if possible.
stdout: -32.5

stdin: Also `O=C(NCCNC(=O)c1cc(S(=O)(=O)NCCc2ccccc2)c(O)c(O)c1O)c1cc(S(=O)(=O)NCCc2ccccc2)c(O)c(O)c1O` , if possible.
stdout: 82.3

stdin: Also `N=c1n(Cc2ccccc2)c(N)cc(=O)n1Cc1ccccc1` , if possible.
stdout: 68.8

stdin: Also `O=c1c2sc3ccccc3c2nnn1-c1ccc(F)c(Cl)c1` , if possible.
stdout: 51

stdin: Also `COC(=O)c1cc(Cl)cc([N+](=O)[O-])c1O` , if possible.
stdout: 93.7

stdin: Also `COc1ccc([C@@H]2[C@@H](Cl)C(=O)N2c2cc(OC)c(OC)c(OC)c2)cc1C` , if possible.
stdout: 59.7

stdin: Also `COc1cccc2nc(Nc3cccc(NC(=O)c4ccc(N5CCN(C)CC5)c(C(F)(F)F)c4)c3)ccc12` , if possible.
stdout: 61.5

stdin: Also COc1cc(C2C=C(C)N=C3SC=NN32)cc(OC)c1OC (stereo not drawn) , if possible.
stdout: 91.6

stdin: Also `Oc1ccc(CCCCCCc2ccc(O)cc2)cc1` , if possible.
stdout: 86.1

stdin: Also COc1cc(C2CC(c3ccc(Cl)cc3)=NN2C=O)ccc1OS(=O)(=O)c1ccc(C)cc1 (stereo not drawn) , if possible.
stdout: 87.2

stdin: Also CCN(CC)CCCC(C)Nc1cnc(C(=O)Nc2ccc(Cl)c3cccnc23)cn1 (stereo not drawn) , if possible.
stdout: 53.3

stdin: Also CCCCCCCCCCC(C(O)c1ccccc1)N1CCCCC1 (stereo not drawn) , if possible.
stdout: 47.4

stdin: Also `CC(C)COC(=O)NC(C)(C)C` , if possible.
stdout: 97.9

stdin: Also `O=C(O)c1ccccc1N=Cc1ccccc1` , if possible.
stdout: 108

stdin: Also `CCOC(=O)c1ccc(NC(=O)NC2=NCCS2)cc1` , if possible.
stdout: 96.5

stdin: Also COC(=O)C(C)NC1=C(Cl)C(=O)C(NC(C)C(=O)OC)=C(Cl)C1=O (stereo not drawn) , if possible.
stdout: 111

stdin: Also `CCN(CC)CCNc1c(C)cc(CO)c(Cl)c1C` , if possible.
stdout: 117

stdin: Also CC1(C)C2CCC(O)(C(=O)O)C1C2 (stereo not drawn) , if possible.
stdout: 112

stdin: Also `O=c1cc(N2CCOCC2)oc2c(-c3ccc4c(c3)OCCO4)csc12` , if possible.
stdout: 18.1

stdin: Also COc1cc(C2=NOC(c3cc(OC)c(OC)c(OC)c3)C2)ccc1OCCCCOc1cc2c(cc1OC)C(=O)N1CCC[C@H]1C=N2 (stereo partly drawn) , if possible.
stdout: 9.04

stdin: Also `CCCCCCCCCCCCCCCCOc1ccc(S(=O)(=O)N(C)C)cc1[N+](=O)[O-]` , if possible.
stdout: 101

stdin: Also `CCCCn1c(-c2ccc(F)cc2)nc2cc(OC)c(OC)cc2c1=O` , if possible.
stdout: 108

stdin: Also `COc1ccc(/C=c2\c(=O)n(-c3ccccc3)c3nn4c(n23)=NNC42CCCCC2)cc1` , if possible.
stdout: 113

stdin: Also `CC(=O)O[C@H]1[C@H](CC#CC#CC[C@@H]2C[C@]3(C)[C@H]4CC=C5[C@H]6[C@@H](C)[C@H](C)CC[C@]6(C(=O)NCCN(CCN)CCN)CC[C@@]5(C)[C@]4(C)CC[C@H]3C(C)(C)[C@H]2OC(C)=O)C[C@]2(C)[C@H]3CC=C4[C@H]5[C@@H](C)[C@H](C)CC[C@]5(C(=O)NCCN(CCN)CCN)CC[C@@]4(C)[C@]3(C)CC[C@H]2C1(C)C` , if possible.
stdout: 54.6

stdin: Also CSC1=NC(=Nc2c(C)cccc2C)C2(CCC(C(C)(C)C)CC2)N1c1ccc(Cl)cc1 (stereo not drawn) , if possible.
stdout: 72.1

stdin: Also O=C(Oc1c(Cl)c(Cl)c(Cl)c(Cl)c1Cl)C1CCCN1C(=O)OCc1ccccc1 (stereo not drawn) , if possible.
stdout: 94.9

stdin: Also `CC1(C)CC[C@]2(C(=O)N3CCNCC3)CC[C@]3(C)C(=CC[C@@H]4[C@@]5(C)CCC(=O)C(C)(C)[C@@H]5CC[C@]43C)[C@@H]2C1` , if possible.
stdout: 109

stdin: Also `CC(=O)c1c(C)nc(-c2cc(C)cc(Cl)c2)nc1-c1cccc(Oc2ccccc2)c1` , if possible.
stdout: 107

stdin: Also Cc1ccccc1N1C(c2ccccc2)=NNC12C=CC(=O)c1c(O)cccc12 (stereo not drawn) , if possible.
stdout: 83.8
